Kindly supply the reported Total cellular platinum accumulation values for the records listed here.
test system: HCT-116 cells; test: Cellular platinum accumulation/distribution by ICP-MS; assay type: cell-based, human; conditions: HCT-116, 24 h exposure, 0.35 µM
One number for each entry, in ng Pt/10^6 cells.

Parameters: items (list). Returns: Total cellular platinum accumulation for each item.
1. CC(=O)[O][Pt]([NH2])([NH2])([Cl])([Cl])[O]C(C)=O [Pt(IV)diAc, cis, cis, trans-[Pt(IV)(NH3)2Cl2(Ac)2]]
2. N.N.[Cl][Pt][Cl] [cisplatin, reference compound]
3. CCCCCCCC(=O)[O][Pt]([NH2])([NH2])([Cl])([Cl])[O]C(C)=O [Pt(IV)AcOA, cis, cis, trans-[Pt(IV)(NH3)2Cl2AcOA]]
4. CCCCCCCC(=O)[O][Pt]([NH2])([NH2])([Cl])([Cl])[O]C(=O)CCCCCCC [Pt(IV)diOA, cis, cis, trans-[Pt(IV)(NH3)2Cl2(OA)2]]

stdout:
0.19
0.9
6.0
29.2
